Exercise: state measured % Change Compared to pH 7.4 + Calcium for each of the binders provided.
Biological target: T1, recombinant, soluble human ASGR-1 (human, UniProt P07306 62-291)
T1 construct: biotinylated in the binning assay; also called soluble huASGR-1; Soluble ASGR-1 (Amgen)
T1 sequence: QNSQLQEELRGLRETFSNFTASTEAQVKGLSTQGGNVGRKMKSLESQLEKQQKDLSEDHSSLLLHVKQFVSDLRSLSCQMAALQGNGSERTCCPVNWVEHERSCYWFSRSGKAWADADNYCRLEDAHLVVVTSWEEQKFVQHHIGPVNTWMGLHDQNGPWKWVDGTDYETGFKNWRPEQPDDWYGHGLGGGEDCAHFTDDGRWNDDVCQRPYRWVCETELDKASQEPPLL
Test: Octet BLI dissociation, pH 7.4 minus calcium
Numbers only, in %.

binder	% Change Compared to pH 7.4 + Calcium, %
74B2 (antibody, V domains shown, hybridoma mAb) VH: QVQLQQWGAGLLKPSEPLSLTCAVYGGSFSGPYWSWIRQPPGKGLEWIGEINHSGSTNYNPSLTSRVTISVDTSKNQFSLKLTSVTAADSAVYYCARDYGGLDVWGQGTTVTVSS VL: ELVLTQSPGTLSLSPGERATLSCRASQNIYSSYLAWYQQKPGQAPRLLIYGASSRATGIPDRFSGSGSGTDFTLTISRLEPEDFAVYCCQQYESSPWTFGQGTKVEIK	8
194B7 (antibody, V domains shown, hybridoma mAb) VH: QVQLVESGGGVVQPGRSLRLSCAASGFTFSSYGMHWVRQAPGKGLEWVAVIWYDGSNKNYADSVKGRFTISRDNSKNTLYLQMNSLRAEDTAVYYCARDRSKGYDGMDVWGQGTTVTVSS VL: DIQMTQSPSSLSASVGDRVTITCRASQGISKYLAWFQQKPGKAPKSLIYGASRLQSGVPSKFSGSGSGTDFTLTISSLQPEDFATYYCQHYLNYPLTFGQGTRLEIK	1
173C11 (antibody, V domains shown, hybridoma mAb) VH: QVQLVESGGGVVQPGRSLRLSCAASGFTFSSYGIHWVRQAPGKGLEWVALIFYDGSNKYYADSVKGRFTISRDNSKNTLYLHMSSLRAEDTAVYYCARRYSSSWSGGMDVWGQGTTVTVSS VL: DIVMTQTPLSLSVTPGQPASISCKSSQSLLHSEGKTYLYWYLQKPGQPPQLLIYEVSHRFSGVPDRFSGSGSGTDFTLKISRVEAEDVGVYYCMQSIQLLTFGGGTKVEIK	17
197E11 (antibody, V domains shown, hybridoma mAb) VH: QVQLVESGGGVVQPGRSLRLSCAASGFTFRNYGMHWVRQAPGKGLEWVAVIWFDGSNDYYADSVKGRFTISRDNSKNTLSLQMNSLRAEDTAVYYCARDRSVGYDGLDVWGQGTTVTVSS VL: DIQMTQSPSSLSASVGDRVTITCRASQGINKYLSWFQQKPGKAPKSLIYAASSVQSGVPSKFSGSGSGTDFTLTISRLQPDDFATYYGQRYDTYPFTFGPGTKVDIK	-1

Now look at this one.
Ask | # query: % Change Compared to pH 7.4 + Calcium of entry 52H2 (antibody, V domains shown, hybridoma mAb) VH: EVQLLESGGGLVQPGGSLRLSCAASGFTFSRNAMSWVRQAPGMGLEWVSAISGRGGNTFYADSVKGRFTVSRDNSKNTLFLQMNSLRAEDTAVYYCAKNGREQWLDYWGQGTLVTVSS VL: DIQMTQSPSSVSASVGDRVTITCRASQNITNWLAWFQQKPGRAPKLLIYTTSSLQSGVPSRFSGSGSGTDFTLTISSLQPEDFATYCCQQTNSFPWTFGHGTKVEVK
Reply | 26
